TARGET_ENTITY: T1, cynomolgus PD-L1-His (Sino Biological, Cat. 90251-C08H) (cynomolgus, UniProt Q9NZQ7 19-238 (human entry))
T1 construct: Bought protein; also called Cyno PD-L1; Cynomolgus PD-L1 ECD-His; not shown: His tag
ASSAY_METHOD_TEXT: BLI (Gator), cynomolgus PD-L1
# Kd per entry
Answer format: numeric, nM implied, no suffix.

-- ask // Input: 74A9 (antibody, human IgG1, V domains shown) VH: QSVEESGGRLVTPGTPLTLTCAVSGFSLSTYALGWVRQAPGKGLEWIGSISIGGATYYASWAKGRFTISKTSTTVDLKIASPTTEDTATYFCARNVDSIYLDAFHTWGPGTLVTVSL VL: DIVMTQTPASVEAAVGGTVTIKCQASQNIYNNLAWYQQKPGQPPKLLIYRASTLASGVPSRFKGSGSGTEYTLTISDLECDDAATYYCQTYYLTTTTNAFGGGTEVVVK . Output its Kd only.
-- reply 3.09

-- ask Supply recorded Kd for 69D10 (antibody, human IgG1, V domains shown) VH: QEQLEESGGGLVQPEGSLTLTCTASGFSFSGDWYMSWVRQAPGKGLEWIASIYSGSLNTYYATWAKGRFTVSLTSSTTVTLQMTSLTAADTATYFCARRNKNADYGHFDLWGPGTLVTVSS VL: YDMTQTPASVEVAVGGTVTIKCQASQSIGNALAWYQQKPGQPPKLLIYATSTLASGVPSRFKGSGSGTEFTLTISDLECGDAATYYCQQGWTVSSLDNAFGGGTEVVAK here.
-- reply 0.18

-- ask Return Kd (reported value) for this binder: 57F11 (antibody, human IgG1, V domains shown) VH: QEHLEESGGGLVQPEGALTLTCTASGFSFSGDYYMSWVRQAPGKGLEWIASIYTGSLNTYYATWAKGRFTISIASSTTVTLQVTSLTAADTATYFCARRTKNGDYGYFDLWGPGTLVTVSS VL: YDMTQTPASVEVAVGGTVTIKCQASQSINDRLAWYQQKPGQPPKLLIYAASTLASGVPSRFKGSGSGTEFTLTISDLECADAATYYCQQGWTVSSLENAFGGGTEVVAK
-- reply 0.27
